# System: OVCAR-3
# testDetails: NCI tumour cell line growth inhibition, 48 h
Active and inactive are the calls of the source. No stated cut-off is given here; in the data, active = GI50 up to about 1.1 µM and inactive = higher.
Returns: one label drawn from label 1 (active), label 0 (inactive)

Check out these entries, answers already filled in.
{"compound": "CCC12CC[C@H](C#N)N3CCc4c(n(c5ccccc45)C(=O)C1)C32 (stereo partly specified)", "assignedCategory": "label 0"}
{"compound": "c1cc2cc(c1)CN1CCNCCN(CCNCC1)Cc1cccc(c1)CN1CCNCCN(CCNCC1)C2", "assignedCategory": "label 0"}
{"compound": "CCOC(=O)CC(C)C1(C(=O)OCC)CCCCC1=O (stereo unspecified)", "assignedCategory": "label 0"}
{"compound": "NCC(Cl)C(O)c1c[nH]c(N)n1 (stereo unspecified)", "assignedCategory": "label 0"}
{"compound": "CCOC(=O)CCC1(C(=O)OCC)CCCCC1=O (stereo unspecified)", "assignedCategory": "label 0"}

Hi, sorry to bother you, what did the test record for `Cn1c(=O)n(-c2c3ccccc3c(Cl)c3ccccc23)n(C(C)(C)C)c1=O` ? label 0

Hi, sorry to bother you, what did the test record for COc1ccc(C2CC(c3ccccc3)=Nc3c(-c4ccccc4)nnn32)cc1 (stereo unspecified) ? label 0
